B1: HDV Ribozyme (parent)
chain: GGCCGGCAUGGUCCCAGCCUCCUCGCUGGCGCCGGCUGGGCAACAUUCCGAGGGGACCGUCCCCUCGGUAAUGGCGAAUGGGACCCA

- Variants of: B1
- experiment notes: self-cleavage, relative activity (ratio to wild type); higher = more cleavage; co-transcriptional
// thresholds for self-cleavage classes: zone 1 (below 0.1), zone 2 (0.1 to below 0.5), zone 3 (0.5 or more)

mutation_list="C63A U72A" discrete_label="zone 3"
mutation_list="C14A A56G" discrete_label="zone 3"
mutation_list="G5U C66A" discrete_label="zone 3"
mutation_list="U65C G76U" discrete_label="zone 3"
mutation_list="U23A G38A" discrete_label="zone 1"
mutation_list="G5C U23C" discrete_label="zone 2"
mutation_list="G38U U60C" discrete_label="zone 2"
mutation_list="G39U G59U" discrete_label="zone 3"
mutation_list=G39C discrete_label="zone 2"
mutation_list="C15G C22U" discrete_label="zone 2"
mutation_list="G40U C62A" discrete_label="zone 3"
mutation_list="G74A G80A" discrete_label="zone 2"
mutation_list="A45U G59U" discrete_label="zone 3"
mutation_list="C19G G76U" discrete_label="zone 1"
mutation_list="C18A G59U" discrete_label="zone 2"
mutation_list="C18U C61U" discrete_label="zone 2"
mutation_list="C41A G81U" discrete_label="zone 2"
mutation_list="G39C U79C" discrete_label="zone 2"
mutation_list="A8U G10U" discrete_label="zone 2"
mutation_list="G5A C57A" discrete_label="zone 1"
mutation_list="U69C U79C" discrete_label="zone 2"
mutation_list="C36U G82U" discrete_label="zone 2"
mutation_list="G5A C41A" discrete_label="zone 1"
mutation_list="A8G G29A" discrete_label="zone 1"
mutation_list="A43U C58G" discrete_label="zone 3"
mutation_list="A8U U12G" discrete_label="zone 3"
mutation_list="U60A G76A" discrete_label="zone 3"
mutation_list="C30G A71U" discrete_label="zone 1"
mutation_list="A78G C84U" discrete_label="zone 3"
mutation_list="U37C C57U" discrete_label="zone 3"
mutation_list="C22G U60G" discrete_label="zone 1"
mutation_list="G50A C64U" discrete_label="zone 3"
mutation_list="C21G U47G" discrete_label="zone 2"
mutation_list="C62U C85A" discrete_label="zone 3"
mutation_list="U9A G40A" discrete_label="zone 3"
mutation_list="U47A C62A" discrete_label="zone 3"
mutation_list="G31A A43C" discrete_label="zone 2"
mutation_list="G55A A78C" discrete_label="zone 1"
mutation_list="G28C A87U" discrete_label="zone 1"
mutation_list="C19G C84G" discrete_label="zone 1"
mutation_list="C48G G76U" discrete_label="zone 3"
mutation_list="U12C C85U" discrete_label="zone 1"
mutation_list="C19A A56C" discrete_label="zone 2"
mutation_list="G31C A56U" discrete_label="zone 2"
mutation_list="C14G C57U" discrete_label="zone 3"
mutation_list="G31A G53C" discrete_label="zone 2"
mutation_list="U37A A42G" discrete_label="zone 1"
mutation_list="C41G G53C" discrete_label="zone 3"
mutation_list="U20A G82C" discrete_label="zone 1"
mutation_list="C33A A83G" discrete_label="zone 2"
mutation_list="C30A C36G" discrete_label="zone 2"
mutation_list="G34A G52C" discrete_label="zone 1"
mutation_list="A8U G29A" discrete_label="zone 1"
mutation_list="C58A G81C" discrete_label="zone 2"
mutation_list="C7U U9C" discrete_label="zone 3"
mutation_list="G39C C41G" discrete_label="zone 2"
mutation_list="U20G U79C" discrete_label="zone 1"
mutation_list="G76A A83G" discrete_label="zone 3"
mutation_list="G17A G40A" discrete_label="zone 3"
mutation_list="A16G C48A" discrete_label="zone 3"
mutation_list="G40A G55U" discrete_label="zone 3"
mutation_list="A8C G68A" discrete_label="zone 3"
mutation_list="G11U A70G" discrete_label="zone 2"
mutation_list="G11C G29A" discrete_label="zone 1"
mutation_list="G10C C18G" discrete_label="zone 1"
mutation_list="A16C U20C" discrete_label="zone 2"
mutation_list="G31U C58U" discrete_label="zone 3"
mutation_list="A16G G34C" discrete_label="zone 1"
mutation_list="U60C C86A" discrete_label="zone 3"
mutation_list="U23C C84G" discrete_label="zone 3"
mutation_list="G74C U79C" discrete_label="zone 2"
mutation_list="G10U C49U" discrete_label="zone 3"
mutation_list="G17C G40U" discrete_label="zone 2"
mutation_list="A56G C86U" discrete_label="zone 3"
mutation_list="U9C C66G" discrete_label="zone 3"
mutation_list="U12C C21U" discrete_label="zone 1"
mutation_list="C3U A83C" discrete_label="zone 2"
mutation_list="A71U G82C" discrete_label="zone 2"
mutation_list="G1C G82C" discrete_label="zone 1"
mutation_list="U20A G81U" discrete_label="zone 1"
mutation_list="G10C C44G" discrete_label="zone 2"
mutation_list="C3A C15G" discrete_label="zone 2"
mutation_list="C3G C41G" discrete_label="zone 2"
mutation_list="G2C A87U" discrete_label="zone 1"
mutation_list="C7G C33G" discrete_label="zone 2"
mutation_list="A16G G53U" discrete_label="zone 3"
mutation_list="U12A G40C" discrete_label="zone 2"
mutation_list="U12C G50U" discrete_label="zone 2"
